Provide the reported polymerase ribozyme fitness (log ratio) of each item.
B1: TPR 5TU (parent)
chain: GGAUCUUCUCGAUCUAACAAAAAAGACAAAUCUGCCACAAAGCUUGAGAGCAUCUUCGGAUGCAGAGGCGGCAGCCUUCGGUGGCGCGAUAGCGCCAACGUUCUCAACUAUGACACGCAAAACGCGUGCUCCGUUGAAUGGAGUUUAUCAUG

Variants of: B1
testName: polymerase ribozyme fitness, log enrichment relative to wild type (log ratio); higher = more active; in vitro selection for triplet polymerase activity
Fewer inactive variants are shown than the library holds.
One number for each entry.

C14G U55A G84A G141A
-3.7
C38G G86U C118U
-2
A73G G143A
-0.82
A21U G50C C54U C63U G94A
-0.0103

Can you give me polymerase ribozyme fitness (log ratio) for all of these, one by one?
1. U53A C54A U82A G141C
2. C76A G143U
3. U6G A21C C75U U144A
4. A17U C85U U104G
5. G81U U82C C95U A120U

Output line:
1: -2.84; 2: -3.02; 3: -0.201; 4: -1.01; 5: -0.64
